Assay: Cytotoxicity, cylinder method
Assay type: cell-based
Details: chicken, chick embryo fibroblast cells, MEM medium, read-out: Minimum Inhibitory Concentration, cylinder method
property.label: MCC at 48 h
State the value, then name its unit.

MCC at 48 h lookup needed for CC=CC(C)=CC(C)C(=O)CC(O)CC1CC(=O)NC(=O)C1 (stereo not shown) [Antibiotic TS-885] , thanks.
0.5 µg/mL

* * *

Test: Cytotoxicity, tube dilution method
Format: cell-based
Details: human, p3 hr-1 cells, MEM medium, read-out: Minimum Inhibitory Concentration, tube dilution method
property.label: MCC at 48 h (µg/mL)
Respond with the bare value in µg/mL.

MCC at 48 h lookup needed for CC=CC(C)=CC(C)C(=O)CC(O)CC1CC(=O)NC(=O)C1 (stereo not shown) [Antibiotic TS-885] , thanks.
0.4
